Test Details: Inhibition of EZH2-mediated proliferation of human LNCaP cells after 6 days by chemiluminescence analysis
Endpoint Label: pIC50
// pIC50 is dimensionless: -log10 of concentration (M)

Item `Cc1cc(C)c(CNC(=O)c2cc(-c3ccc(N4CCN(C)CC4)nc3)cc3c2cnn3C(C)C)c(=O)[nH]1` has what recorded pIC50? 5.35
